This collection of values is drawn from the RNAGym collection of RNA variant scans (doi:10.1093/nar/gkz1192).

B1: CPEB3 Ribozyme (parent)
chain: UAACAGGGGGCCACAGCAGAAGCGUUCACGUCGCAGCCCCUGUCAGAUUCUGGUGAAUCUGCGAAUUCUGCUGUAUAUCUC

- Variants of: B1
- test.name: self-cleavage, relative activity (ratio to wild type); higher = more cleavage; in vitro, sequencing
Could you please report measured self-cleavage for the items listed next?

Check out these entries, answers already filled in.
Problem: Name the recorded self-cleavage for UAACAGGGGGCCACAGCGGAAGCGUUCACGUCGCAGCCCCUGUCAGAUUCUGGUGAAUCCGCGAAUUCUGCUGUAUAUCUC [A18G U60C] .
Result: 0.28

Problem: One more variant: UGACAGGGGGCCACAGCAGAAGCGUUCACGUCGCAGCCCCUGUCAGAUUCUGGUGAAUCUGCGAAUUCUGCUGUAUUUCUC [A2G A77U]
Result: 0.62

Problem: One more variant: UAACAGGGGGCCACAGCAGAAGCGAUCACGUCGCAGCCCCUGUCAGAUCCUGGUGAAUCUGCGAAUUCUGCUGUAUAUCUC [U25A U49C]
Result: 0.22

Now for another entry.
Problem: Name the recorded self-cleavage for UAACAGGGGGCCACAGCAGAAGCGUUCACGUCGCAGCCCCUGUCAGAUUCUGGUGAAUCUGCGAAUUCCGCUGUAUAUCUU [U69C C81U] .
Result: 0.5
